Assay: soluble on expression in E. coli; label from the status in PepcDB or PDB records
observation-type: soluble on expression in E. coli

residues=MEKKFIAIYDLESDKIEIIDDKFRFKCIEDCGKCCIYNEIPLREEDIQKILSLGYEEEYFVDYTKMFYRGPKFLGYGMKKRPFDDACVFLDPETKKCRIYEHRPVACRIYPFVLVKHEKKLEIYVKEDPRCPGINSPDGEGIVEIIKKYFIPIIEELKGEINGNRRSRQEDFISFNRRLETVVAAALEHHHHHH recorded_measurement="not soluble"
residues=SLRYSKLTMLIPCALLLSACTTVTPAYKDNGTRSGPCVEGGPDNVAQQFYDYRILHRSNDITALRPYLSDKLATLLSDASRDNNHRELLTNDPFSSRTTLPDSAHVASASTIPNRDARNIPLRVDLKQGDQGWQDEVLMIQEGQCWVIDDVRYLGGSVHATAGTLRQSIENR recorded_measurement="not soluble"
residues=MLKMSTRTEAMSDKQVRAQYTREFKLEAVRQVRAGQAIAGVAKVLGIPKASLGNGVRLAAKGALGGSGGSDKADRVSPEQMEIARLRAEVARLRMERDIAKKAAAYFAQDTLRGTPGLTQLEHHHHHH recorded_measurement="not soluble"

Taken from the DeepSol protein solubility set.
